Origin of the recorded values: patent US10844077B2

Molecular target: NEK4 (Homo sapiens (Human))
Sequence (P51957 whole entry): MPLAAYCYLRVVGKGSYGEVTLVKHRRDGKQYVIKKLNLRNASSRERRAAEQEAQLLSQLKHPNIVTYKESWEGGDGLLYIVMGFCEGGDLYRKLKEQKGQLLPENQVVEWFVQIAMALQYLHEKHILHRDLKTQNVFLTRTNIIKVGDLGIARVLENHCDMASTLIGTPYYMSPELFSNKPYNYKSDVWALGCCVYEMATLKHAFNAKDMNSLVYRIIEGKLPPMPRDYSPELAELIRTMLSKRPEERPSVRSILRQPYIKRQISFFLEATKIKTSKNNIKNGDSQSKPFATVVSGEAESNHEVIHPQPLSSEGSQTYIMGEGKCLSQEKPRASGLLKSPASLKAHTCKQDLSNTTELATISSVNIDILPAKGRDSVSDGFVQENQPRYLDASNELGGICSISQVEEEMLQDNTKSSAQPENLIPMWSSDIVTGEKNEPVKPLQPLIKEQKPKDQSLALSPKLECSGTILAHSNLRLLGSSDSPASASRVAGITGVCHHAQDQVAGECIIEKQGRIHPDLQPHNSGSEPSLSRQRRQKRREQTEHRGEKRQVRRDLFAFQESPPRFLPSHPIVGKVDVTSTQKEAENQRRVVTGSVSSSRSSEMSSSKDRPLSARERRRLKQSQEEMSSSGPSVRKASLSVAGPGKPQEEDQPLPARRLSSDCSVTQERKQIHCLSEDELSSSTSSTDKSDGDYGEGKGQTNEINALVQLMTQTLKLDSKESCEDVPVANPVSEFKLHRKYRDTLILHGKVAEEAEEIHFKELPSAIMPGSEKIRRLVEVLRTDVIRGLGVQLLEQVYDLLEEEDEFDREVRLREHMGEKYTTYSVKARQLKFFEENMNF
Test: KINATIV assay
Format: cell-based
Details: 1 μM, 90 minutes, BCWM.1 cells
assayEndpoint: % change of MS signal compared to control sample (%)

compound	reportedMeasurement
C=CC(=O)N1CCCCC(Nc2nccc(Nc3ncc(C(=O)Nc4c(C)cccc4C)s3)n2)C1 (stereo not shown)	7.9
C=CC(=O)N1CCC(Cn2ccc(Nc3ncc(C(=O)Nc4c(C)cccc4Cl)s3)n2)C1 (stereo not shown)	18.5
C=CC(=O)N1CC[C@@H](Nc2nccc(Nc3ncc(C(=O)Nc4c(C)cccc4C)s3)n2)C1	12.3
C=CC(=O)N1CCC(CNc2nccc(Nc3ncc(C(=O)Nc4c(C)cccc4C)s3)n2)C1 (racemic)	15.2

----------
Each entry below carries its recorded % change of MS signal compared to control sample.
System: FYN, SRC, YES
Assay: KINATIV assay
Format: cell-based
Conditions: 1 μM, 90 minutes, BCWM.1 cells
assayEndpoint: % change of MS signal compared to control sample (%)

compound	studySystem	reportedMeasurement
C=CC(=O)N1CCC(CNc2nccc(Nc3ncc(C(=O)Nc4c(C)cccc4C)s3)n2)C1 (racemic) [Example I-8]	FYN, SRC, YES	97.9
C=CC(=O)N1CC[C@@H](Nc2nccc(Nc3ncc(C(=O)Nc4c(C)cccc4C)s3)n2)C1 [Example I-4]	FYN, SRC, YES	97.4
C=CC(=O)N1CCCCC(Nc2nccc(Nc3ncc(C(=O)Nc4c(C)cccc4C)s3)n2)C1 (stereo not shown) [Example I-7]	FYN, SRC, YES	98.4
C=CC(=O)N1CCC(Cn2ccc(Nc3ncc(C(=O)Nc4c(C)cccc4Cl)s3)n2)C1 (stereo not shown) [II-1]	FYN, SRC, YES	88.1

----------
Molecular target: RSK2 domain2 (Homo sapiens (Human), UniProt P51812)
Sequence (P51812 whole entry, the tested form may be a part): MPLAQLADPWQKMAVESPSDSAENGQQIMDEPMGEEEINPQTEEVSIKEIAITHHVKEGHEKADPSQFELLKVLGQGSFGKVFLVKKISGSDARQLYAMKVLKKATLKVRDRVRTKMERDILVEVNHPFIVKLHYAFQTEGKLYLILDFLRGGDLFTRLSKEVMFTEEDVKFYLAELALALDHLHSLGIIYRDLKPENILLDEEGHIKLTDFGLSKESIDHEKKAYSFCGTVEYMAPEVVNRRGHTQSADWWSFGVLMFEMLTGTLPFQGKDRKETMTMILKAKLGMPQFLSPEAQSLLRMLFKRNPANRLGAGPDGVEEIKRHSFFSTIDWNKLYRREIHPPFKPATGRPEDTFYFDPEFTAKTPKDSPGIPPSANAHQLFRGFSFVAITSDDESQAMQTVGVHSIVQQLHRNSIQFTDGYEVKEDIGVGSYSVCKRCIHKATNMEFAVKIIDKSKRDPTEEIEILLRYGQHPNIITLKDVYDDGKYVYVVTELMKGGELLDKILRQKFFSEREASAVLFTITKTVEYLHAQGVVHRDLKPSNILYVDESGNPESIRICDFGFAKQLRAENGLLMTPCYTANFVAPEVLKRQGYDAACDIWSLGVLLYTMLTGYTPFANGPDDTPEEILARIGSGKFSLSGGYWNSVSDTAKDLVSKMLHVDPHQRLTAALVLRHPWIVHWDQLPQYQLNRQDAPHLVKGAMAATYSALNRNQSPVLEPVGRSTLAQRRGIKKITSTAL
Test: KINATIV assay
Type: cell-based
Details: 1 μM, 90 minutes, BCWM.1 cells
assayEndpoint: % change of MS signal compared to control sample

molecule	reportedMeasurement
C=CC(=O)N1CCC(Cn2ccc(Nc3ncc(C(=O)Nc4c(C)cccc4Cl)s3)n2)C1 (stereo not shown) [II-1]	9.7%
C=CC(=O)N1CC[C@@H](Nc2nccc(Nc3ncc(C(=O)Nc4c(C)cccc4C)s3)n2)C1 [Example I-4]	13.8%
C=CC(=O)N1CCCCC(Nc2nccc(Nc3ncc(C(=O)Nc4c(C)cccc4C)s3)n2)C1 (stereo not shown) [Example I-7]	−0.3%
C=CC(=O)N1CCC(CNc2nccc(Nc3ncc(C(=O)Nc4c(C)cccc4C)s3)n2)C1 (racemic) [Example I-8]	−6.8%

----------
Molecular target: MAP2K1 (Homo sapiens (Human))
Sequence (Q02750 whole entry): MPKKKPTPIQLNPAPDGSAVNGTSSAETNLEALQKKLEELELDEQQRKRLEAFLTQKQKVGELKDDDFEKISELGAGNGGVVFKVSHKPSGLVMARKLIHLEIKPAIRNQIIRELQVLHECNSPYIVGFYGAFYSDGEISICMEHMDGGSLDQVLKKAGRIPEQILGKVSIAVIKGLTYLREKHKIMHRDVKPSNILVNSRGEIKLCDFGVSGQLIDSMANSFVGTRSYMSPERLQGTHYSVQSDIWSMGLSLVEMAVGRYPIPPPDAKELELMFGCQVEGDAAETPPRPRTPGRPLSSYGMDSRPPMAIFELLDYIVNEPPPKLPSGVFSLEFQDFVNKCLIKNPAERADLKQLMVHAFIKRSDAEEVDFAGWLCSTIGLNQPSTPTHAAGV
Test: KINATIV assay
Format: cell-based
Settings: 1 μM, 90 minutes, BCWM.1 cells
% change of MS signal compared to control sample reference
assayEndpoint: % change of MS signal compared to control sample (%)

molecule	reportedMeasurement
C=CC(=O)N1CCCCC(Nc2nccc(Nc3ncc(C(=O)Nc4c(C)cccc4C)s3)n2)C1 (stereo not shown) [Example I-7]	−3.7
C=CC(=O)N1CCC(CNc2nccc(Nc3ncc(C(=O)Nc4c(C)cccc4C)s3)n2)C1 (racemic) [Example I-8]	1.0
C=CC(=O)N1CCC(Cn2ccc(Nc3ncc(C(=O)Nc4c(C)cccc4Cl)s3)n2)C1 (stereo not shown) [II-1]	−23.4
C=CC(=O)N1CC[C@@H](Nc2nccc(Nc3ncc(C(=O)Nc4c(C)cccc4C)s3)n2)C1 [Example I-4]	−31.6
